- procedureSummary: SRB cytotoxicity assay, hepatocyte HL-7702
- Assay type: cell-based, human
- conditionParameters: HL-7702 hepatocyte cell line; SRB assay, 48 h, human hepatocyte, mean ± SD; read-out: IC50 Cytotoxicity HL-7702
readoutType: IC50 at 48 h (µM)
The response must be a number in µM with no trailing unit.

// below: answered compounds
[[record]]
compound = "CC(O)CC#CC#Cc1ccccc1 (stereo not shown) [Compound 22]"
readouttype = "IC50 at 48 h"
u = "µM"
number = 161

[[record]]
compound = "CC[C@@]1(O)C(=O)OCc2c1cc1n(c2=O)Cc2cc3ccccc3nc2-1 [CPT, Camptothecin, reference compound]"
readouttype = "IC50 at 48 h"
u = "µM"
number = 2.11

[[record]]
compound = "COc1ccc(-c2oc3cc(O)c(OC)c(O)c3c(=O)c2OC)cc1O [Compound 5]"
readouttype = "IC50 at 48 h"
u = "µM"
number = 14.4


Dear colleague, please send me the reported IC50 at 48 h for COc1cc(OC)cc(-c2oc3cc(O[C@@H]4O[C@H](CO)[C@@H](O)[C@H](O)[C@H]4O)cc(O)c3c(=O)c2O)c1 [Compound 10] when you can.
115

Dear colleague, please send me the reported IC50 at 48 h for COc1cc(O)c2c(=O)c(OC)c(-c3ccc(O)c(O)c3)oc2c1 [Compound 4] when you can.
19.6

Dear colleague, please send me the reported IC50 at 48 h for COc1ccc(-c2oc3c(O)c(OC)c(O)cc3c(=O)c2OC)cc1O [Compound 6] when you can.
23.9

Dear colleague, please send me the reported IC50 at 48 h for CC#CC#CC#Cc1ccccc1 [Compound 23] when you can.
199

Dear colleague, please send me the reported IC50 at 48 h for COc1ccc(-c2oc3c(O)c(OC)c(O[C@@H]4O[C@H](CO)[C@@H](O)[C@H](O)[C@H]4O)cc3c(=O)c2OC)cc1O [Compound 9] when you can.
126

Dear colleague, please send me the reported IC50 at 48 h for COc1cc(-c2oc3cc(O)c(OC)c(O)c3c(=O)c2OC)ccc1O [Compound 7] when you can.
11.4
